Target: T1, human GPRC5D (human, UniProt Q9NZD1 1-345)
T1 construct: whole, on cells; Target always presented on cells (K562-GPRC5D, RPMI 8226, MM.1S, NCI-H929); also called GPRC5D protein
T1 sequence (Q9NZD1 whole entry): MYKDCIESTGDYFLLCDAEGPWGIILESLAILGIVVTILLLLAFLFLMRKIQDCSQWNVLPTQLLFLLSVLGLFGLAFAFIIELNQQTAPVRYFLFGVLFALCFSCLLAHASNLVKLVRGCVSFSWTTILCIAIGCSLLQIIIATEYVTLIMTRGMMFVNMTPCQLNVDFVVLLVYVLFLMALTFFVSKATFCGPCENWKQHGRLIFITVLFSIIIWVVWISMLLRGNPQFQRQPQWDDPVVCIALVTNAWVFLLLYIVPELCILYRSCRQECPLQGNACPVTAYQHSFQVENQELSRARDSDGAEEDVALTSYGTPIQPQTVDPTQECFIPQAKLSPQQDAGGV
Test: flow cytometry, IgG1 antibody titrated on K562-GPRC5D cells
observable: binding result

G09 humanized IgG1-type antibody (native structure) (antibody, V domains shown, also called G09-mAb) VH: EVQLVESGGGLVQPGGSLRLSCAASGFSLSNNGITWVRQAPGKGLEWIGIITTTGSAYYAGWAKGRFTISRDNSKNTLYLQMNSLRAEDTAVYYCARGYGIHGLWGPGTLVTVSS VL: DIQMTQSPSSLSASVGDRVTITCQASESISNYLSWYQQKPGKVPKLLIYRASTLASGVPSRFSGSGSGTDFTLTISSLQPEDVATYYCQGYDGSASSSNYESAFGQGTKLTVL	binds
G02 humanized IgG1-type antibody (native structure) (antibody, V domains shown) VH: EVQLVESGGGLVQPGGSLRLSCTASGFSLSSNAMSWVRQAPGKGLEWIGSIGRSGSTYNANWAKGRFTISRDNSKNTVYLQMNSLRAEDTAVYFCAKFTGGVSGGYFSVWGPGTLVTVSS VL: DIQMTQSPSTLSASVGDRVIINCQASQSVYNNNLLSWYQQKPGKAPKLLIYAASNLASGVPSRFSGSGSGAEFTLTISSLQPDDFATYYCQGYYGGAICAFGQGTKLTVL	binds
G05 humanized IgG1-type antibody (native structure) (antibody, V domains shown, also called G05-mAb) VH: EVQLVESGGGLVQPGGSLRLSCAASGFSLTDNGITWVRQAPGKGLEWIGIMTTGGSTYYAGWAKGRFTISRDNSKNTLYLQMNSLRAEDTATYFCTRGYGIHGLWGPGTLVTVSS VL: DIQMTQSPSSLSASVGDRVTITCQASESISKFLSWYQQKPGKVPKLLIYRASTLASGVPSRFSGSGSGTDFTLTISSLQPEDVATYYCQGYDGSSTTTNYESAFGQGTKLTVL	binds
G07 humanized IgG1-type antibody (native structure) (antibody, V domains shown, also called G07-mAb) VH: EVQLVESGGGLVQPGGSLRLSCAASGFSLTDNGITWVRQAPGKGLEWIGIMTTGGTTYYAGWAKGRFTISRDNSKNTLYLQMNSLRAEDTAVYYCARGYGIHGLWGPGTLVTVSS VL: DIQMTQSPSSLSASVGDRVTITCQASESVSKFLSWYQQKPGKVPKLLIYRASTLASGVPSRFSGSGSGTDFTLTISSLQPEDVATYYCQGYDGSSTTTNYESAFGQGTKLTVL	binds

Where do the numbers come from? From patent US20260028398A1.
